Target: cIAP2-BIR2 (Homo sapiens (Human))
Sequence (Q13489 158-242): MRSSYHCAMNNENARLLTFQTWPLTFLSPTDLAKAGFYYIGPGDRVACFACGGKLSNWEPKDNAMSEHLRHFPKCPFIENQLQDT
Test: BIR binding assay (FRET competition), cIAP2 BIR2
MEASURE: IC50

C[C@@H]1CN(CC(=O)N2CC(C)(C)c3[nH]c(=O)c(Cc4ccc(F)cc4)cc32)[C@@H](CN2CCO[C@H](COc3cccc(OC[C@@H]4CN(C[C@H]5CN[C@H](C)CN5CC(=O)N5CC(C)(C)c6[nH]c(=O)c(Cc7ccc(F)cc7)cc65)CCO4)c3Cl)C2)CN1 : 1 to 3.16 µM

So for C[C@@H]1CN(CC(=O)N2CC(C)(C)c3[nH]c(=O)c(Cc4c(F)cc(F)cc4F)cc32)[C@@H](CN2CCO[C@H](C(=O)NCc3ccc(CNC(=O)[C@@H]4CN(C[C@H]5CN[C@H](C)CN5CC(=O)N5CC(C)(C)c6[nH]c(=O)c(Cc7c(F)cc(F)cc7F)cc65)CCO4)cc3)C2)CN1 , the logged IC50 turned out to be 0.0224 to 1 µM

Value of measured IC50 for the entry COC(=O)c1cc(F)ccc1Cc1cnc2c(c1)N(C(=O)CN1C[C@@H](C)NC[C@@H]1CN1CCO[C@H](COc3cccc(OC[C@@H]4CN(C[C@H]5CN[C@H](C)CN5CC(=O)N5CC(C)(C)c6ncc(Cc7ccc(F)cc7C(=O)OC)cc65)CCO4)c3)C1)CC2(C)C : 3.16 to 10 µM

// recorded IC50 for C[C@@H]1CN(CC(=O)N2CC(C)(C)c3[nH]c(=O)c(Cc4ccc(F)cc4)cc32)[C@@H](CN2CCO[C@H](C(=O)NCCNC(=O)[C@@H]3CN(C[C@H]4CN[C@H](C)CN4CC(=O)N4CC(C)(C)c5[nH]c(=O)c(Cc6ccc(F)cc6)cc54)CCO3)C2)CN1 : 3.16 to 10 µM

###

Molecular target: XIAP-BIR3 (Homo sapiens (Human), UniProt P98170)
Sequence (P98170 241-356): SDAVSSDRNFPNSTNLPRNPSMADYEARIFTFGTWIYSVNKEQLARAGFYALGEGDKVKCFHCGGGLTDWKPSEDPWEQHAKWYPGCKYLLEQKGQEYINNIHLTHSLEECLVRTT
Assay: BIR binding assay (FRET competition), XIAP BIR3
Conditions: fold separation (FS) for XIAP
MEASURE: XIAP BIR3 vs BIR2 separation window

C[C@@H]1CN(CC(=O)N2CC(C)(C)c3[nH]c(=O)c(Cc4ccc(F)cc4)cc32)[C@@H](CN2CCO[C@H](C(=O)NCCN3CCN(C(=O)[C@@H]4CN(C[C@H]5CN[C@H](C)CN5CC(=O)N5CC(C)(C)c6[nH]c(=O)c(Cc7ccc(F)cc7)cc65)CCO4)CC3)C2)CN1 : +++ (10,000>FS>1,000)
C[C@@H]1CN(CC(=O)N2CC(C)(C)c3[nH]c(=O)c(Cc4ccc(F)cc4)cc32)[C@@H](CN2CCO[C@@H](COCCCCOC[C@H]3CN(C[C@H]4CN[C@H](C)CN4CC(=O)N4CC(C)(C)c5[nH]c(=O)c(Cc6ccc(F)cc6)cc54)CCO3)C2)CN1 : ++++ (FS>10,000)
C[C@@H]1CN(CC(=O)N2CC(C)(C)c3[nH]c(=O)c(Cc4ccc(F)cc4)cc32)[C@@H](CN2CCO[C@H](C(=O)NCc3cccc(CNC(=O)[C@@H]4CN(C[C@H]5CN[C@H](C)CN5CC(=O)N5CC(C)(C)c6[nH]c(=O)c(Cc7ccc(F)cc7)cc65)CCO4)c3)C2)CN1 : ++++ (FS>10,000)
C[C@@H]1CN(CC(=O)N2CC(C)(C)c3[nH]c(=O)c(Cc4ccc(F)cc4)cc32)[C@@H](CN2CCO[C@H](COc3ccccc3Oc3ccccc3OC[C@@H]3CN(C[C@H]4CN[C@H](C)CN4CC(=O)N4CC(C)(C)c5[nH]c(=O)c(Cc6ccc(F)cc6)cc54)CCO3)C2)CN1 : +++ (10,000>FS>1,000)

###

Molecular target: cIAP1-BIR3 (Homo sapiens (Human), UniProt Q13490)
Sequence (Q13490 253-363): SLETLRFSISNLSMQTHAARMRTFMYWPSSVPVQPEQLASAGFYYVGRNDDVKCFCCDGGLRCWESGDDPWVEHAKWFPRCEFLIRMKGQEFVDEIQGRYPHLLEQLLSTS
Assay: BIR binding assay (FRET competition), cIAP1 BIR3
Settings: fold separation (FS) for cIAP1
MEASURE: cIAP1 BIR3 vs BIR2 separation window

C[C@@H]1CN(CC(=O)N2CC(C)(C)c3[nH]c(=O)c(Cc4ccc(F)cc4)cc32)[C@@H](CN2CCN(C(=O)c3ccc(C(=O)N4CCN(C[C@H]5CN[C@H](C)CN5CC(=O)N5CC(C)(C)c6[nH]c(=O)c(Cc7ccc(F)cc7)cc65)[C@H](C)C4)cc3)C[C@H]2C)CN1 : +++ (10,000>FS>1,000)
C[C@@H]1CN(CC(=O)N2CC(C)(C)c3[nH]c(=O)c(Cc4ccc(F)cc4)cc32)[C@@H](CN2CCO[C@H](COCCOCCOC[C@@H]3CN(C[C@H]4CN[C@H](C)CN4CC(=O)N4CC(C)(C)c5[nH]c(=O)c(Cc6ccc(F)cc6)cc54)CCO3)C2)CN1 : +++ (10,000>FS>1,000)
C[C@@H]1CN(CC(=O)N2CC(C)(C)c3[nH]c(=O)c(Cc4ccc(F)cc4)cc32)[C@@H](CN2CCN(C(=O)c3cccnc3-c3ncccc3C(=O)N3CCN(C[C@H]4CN[C@H](C)CN4CC(=O)N4CC(C)(C)c5[nH]c(=O)c(Cc6ccc(F)cc6)cc54)[C@H](C)C3)C[C@H]2C)CN1 : ++ (1,000>FS>100)
C[C@@H]1CN(CC(=O)N2CC(C)(C)c3[nH]c(=O)c(Cc4ccc(F)cc4)cc32)[C@@H](CN2CCO[C@H](C(=O)NCCN3CCN(C(=O)[C@@H]4CN(C[C@H]5CN[C@H](C)CN5CC(=O)N5CC(C)(C)c6[nH]c(=O)c(Cc7ccc(F)cc7)cc65)CCO4)CC3)C2)CN1 : ++ (1,000>FS>100)
C[C@@H]1CN(CC(=O)N2CC(C)(C)c3[nH]c(=O)c(Cc4ccc(F)cc4)cc32)[C@@H](CN2CCO[C@H](C(=O)NCC#CC#CCNC(=O)[C@@H]3CN(C[C@H]4CN[C@H](C)CN4CC(=O)N4CC(C)(C)c5[nH]c(=O)c(Cc6ccc(F)cc6)cc54)CCO3)C2)CN1 : ++ (1,000>FS>100)

Value of cIAP1 BIR3 vs BIR2 separation window reported for the molecule C[C@@H]1CN(CC(=O)N2CC(C)(C)c3[nH]c(=O)c(Cc4c(Cl)cc(Cl)cc4Cl)cc32)[C@@H](CN2CCO[C@H](C(=O)NCc3ccc(CNC(=O)[C@@H]4CN(C[C@H]5CN[C@H](C)CN5CC(=O)N5CC(C)(C)c6[nH]c(=O)c(Cc7c(Cl)cc(Cl)cc7Cl)cc65)CCO4)cc3)C2)CN1 is ++ (1,000>FS>100)

The recorded cIAP1 BIR3 vs BIR2 separation window for COC(=O)c1cc(F)ccc1Cc1cnc2c(c1)N(C(=O)CN1C[C@@H](C)NC[C@@H]1CN1CCO[C@H](COc3cccc(OC[C@@H]4CN(C[C@H]5CN[C@H](C)CN5CC(=O)N5CC(C)(C)c6ncc(Cc7ccc(F)cc7C(=O)OC)cc65)CCO4)c3)C1)CC2(C)C is +++ (10,000>FS>1,000)

###

Test system: Jurkat HIV-luciferase clones
Assay: Jurkat latency reversal assay
Format: cell-based
Conditions: Homo sapiens, 48 h; Jurkat latency reversal assay potency; read-out: Jurkat pEC50 (converted)
MEASURE: EC50

Would you please look over these solved cases?
C[C@@H]1CN(CC(=O)N2CC(C)(C)c3[nH]c(=O)c(Cc4ccc(C(F)F)cc4)cc32)[C@@H](CN2CCO[C@H](C(=O)NCc3ccc(CNC(=O)[C@@H]4CN(C[C@H]5CN[C@H](C)CN5CC(=O)N5CC(C)(C)c6[nH]c(=O)c(Cc7ccc(C(F)F)cc7)cc65)CCO4)cc3)C2)CN1 [Compound 166] : 316 to 3310 nM
C[C@@H]1CN(CC(=O)N2CC(C)(C)c3[nH]c(=O)c(Oc4ccc(F)cc4)cc32)[C@@H](CN2CCO[C@H](C(=O)NCc3ccc(CNC(=O)[C@@H]4CN(C[C@H]5CN[C@H](C)CN5CC(=O)N5CC(C)(C)c6[nH]c(=O)c(Oc7ccc(F)cc7)cc65)CCO4)cc3)C2)CN1 [Compound 181] : 63.1 to 316 nM
C[C@@H]1CN(CC(=O)N2CC(C)(C)c3[nH]c(=O)c(Cc4ccc(F)c(F)c4F)cc32)[C@@H](CN2CCO[C@H](C(=O)NCc3ccc(CNC(=O)[C@@H]4CN(C[C@H]5CN[C@H](C)CN5CC(=O)N5CC(C)(C)c6[nH]c(=O)c(Cc7ccc(F)c(F)c7F)cc65)CCO4)cc3)C2)CN1 [Compound 178] : 0.49 to 12.6 nM
C[C@@H]1CN(CC(=O)N2CC(C)(C)c3[nH]c(=O)c(Cc4ccc(F)cc4)cc32)[C@@H](CN2CCC(C(F)(F)COc3cccc(OCC(F)(F)C4CCN(C[C@H]5CN[C@H](C)CN5CC(=O)N5CC(C)(C)c6[nH]c(=O)c(Cc7ccc(F)cc7)cc65)CC4)c3)CC2)CN1 [Example 110] : 0.49 to 12.6 nM
C[C@@H]1CN(CC(=O)N2CC(C)(C)c3[nH]c(=O)c(Cc4ccc(F)cc4)cc32)[C@@H](CN2CCO[C@H](C(=O)NCCOCCNC(=O)[C@@H]3CN(C[C@H]4CN[C@H](C)CN4CC(=O)N4CC(C)(C)c5[nH]c(=O)c(Cc6ccc(F)cc6)cc54)CCO3)C2)CN1 [Compound 138] : 63.1 to 316 nM

EC50 in this record for C[C@@H]1CN(CC(=O)N2CC(C)(C)c3[nH]c(=O)c(Cc4ccc(F)cc4)cc32)[C@@H](CN2CCO[C@H](C(=O)N(C)CC3CCN(C(=O)[C@@H]4CN(C[C@H]5CN[C@H](C)CN5CC(=O)N5CC(C)(C)c6[nH]c(=O)c(Cc7ccc(F)cc7)cc65)CCO4)CC3)C2)CN1 [Example 132] : 12.6 to 63.1 nM

Query C[C@@H]1CN(CC(=O)N2CC(C)(C)c3[nH]c(=O)c(Cc4ccc(F)cc4)cc32)[C@@H](CN2CCO[C@H](C(=O)NC3CCN(C(=O)[C@@H]4CN(C[C@H]5CN[C@H](C)CN5CC(=O)N5CC(C)(C)c6[nH]c(=O)c(Cc7ccc(F)cc7)cc65)CCO4)CC3)C2)CN1 [Example 129] yields EC50 of 0.49 to 12.6 nM
